Target: human HSL (Homo sapiens, UniProt Q05469)
Construct: overlapping PCR to generate a full length human HSL ORF with a 3′-His6 tag; His6 (C)
Sequence (Q05469 1-1076): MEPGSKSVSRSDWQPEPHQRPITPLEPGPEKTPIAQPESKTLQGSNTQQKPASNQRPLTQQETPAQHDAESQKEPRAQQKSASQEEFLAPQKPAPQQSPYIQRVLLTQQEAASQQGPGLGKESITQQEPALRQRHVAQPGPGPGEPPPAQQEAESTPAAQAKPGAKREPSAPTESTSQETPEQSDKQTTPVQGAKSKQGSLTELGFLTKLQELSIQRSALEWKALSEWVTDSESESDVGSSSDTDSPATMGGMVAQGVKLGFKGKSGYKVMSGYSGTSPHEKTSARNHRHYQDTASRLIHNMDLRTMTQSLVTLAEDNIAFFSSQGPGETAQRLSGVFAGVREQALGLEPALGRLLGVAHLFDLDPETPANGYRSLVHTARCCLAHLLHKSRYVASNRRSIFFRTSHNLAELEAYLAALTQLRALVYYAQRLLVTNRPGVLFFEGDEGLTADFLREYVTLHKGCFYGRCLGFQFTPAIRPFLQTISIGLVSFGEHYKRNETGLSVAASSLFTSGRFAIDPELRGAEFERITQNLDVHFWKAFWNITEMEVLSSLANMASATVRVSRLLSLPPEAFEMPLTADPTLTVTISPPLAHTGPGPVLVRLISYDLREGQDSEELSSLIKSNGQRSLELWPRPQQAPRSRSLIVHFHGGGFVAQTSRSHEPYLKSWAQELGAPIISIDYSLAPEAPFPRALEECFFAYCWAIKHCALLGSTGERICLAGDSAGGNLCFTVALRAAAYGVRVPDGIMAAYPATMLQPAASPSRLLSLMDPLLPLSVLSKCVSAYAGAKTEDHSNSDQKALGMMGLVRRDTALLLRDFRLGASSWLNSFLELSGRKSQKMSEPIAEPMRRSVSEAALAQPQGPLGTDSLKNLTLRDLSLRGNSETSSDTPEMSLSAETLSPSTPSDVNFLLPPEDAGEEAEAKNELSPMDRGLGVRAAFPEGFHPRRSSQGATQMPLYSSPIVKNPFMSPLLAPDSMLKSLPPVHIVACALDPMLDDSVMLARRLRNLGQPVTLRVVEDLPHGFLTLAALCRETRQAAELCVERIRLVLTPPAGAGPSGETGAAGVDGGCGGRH
Test: Human Hormone-Sensitive Lipase (HSL) Enzyme Inhibition Assay
Conditions: colorimetric assay, 2,3-dimercapto-1-propanol tributyrate (DMPT) substrate, 37° C. for 20 minutes, absorbance at 405 nm; read-out: HSL hum IC50
pIC50: −log10 of the molar value.
REPORTED_ENDPOINT: pIC50

COMPOUND_SMILES: O=C1N(c2ccc(C(F)(F)F)cc2)CCCC12CCN(S(=O)(=O)c1ccccc1Cl)CC2
REPORTED_ENDPOINT: pIC50
REPORTED_MEASUREMENT: 6.92

COMPOUND_SMILES: O=C1N(c2ccc(OC(F)(F)F)cc2)CCC12CCN(S(=O)(=O)c1ccccc1C(F)(F)F)CC2
REPORTED_ENDPOINT: pIC50
REPORTED_MEASUREMENT: 7.40

COMPOUND_SMILES: CS(=O)(=O)Oc1ccc(N2CCC3(CCN(S(=O)(=O)c4ccccc4Cl)CC3)C2=O)cc1
REPORTED_ENDPOINT: pIC50
REPORTED_MEASUREMENT: 7.52

COMPOUND_SMILES: Cc1nc(C(=O)N2CCC3(CC2)CCN(c2ccc(OC(F)(F)F)cc2)C3=O)cs1
REPORTED_ENDPOINT: pIC50
REPORTED_MEASUREMENT: 6.09
